The reported numbers originate from patent US20200325230A1.

biological target: T1, human BTLA expressed on HEK-293 cells (human, UniProt Q7Z6A9 31-289); experiment: flow cytometry on HEK 293 cells expressing BTLA (MFI)
T1 construct: whole, on cells
Would you mind telling me the reported pEC50 of each entry?
Give bare numbers, as −log10 of the molar value.

>>> result_value("anti-BTLA antibody 16-I20A (antibody, V domains shown, also called 16420A) VH: QVQLQESGPGLVKPSETLSLTCTVSGGSISYYYWSWIRQPPGTGLEWIGYIYYSGSTKYNPSLKRRVTISVDTSKNQFSLKLSSVTAADTAVYYCARIRGDSYGWDFDYWGQGTLVTVSS VL: EIVMTQSPATLSLSPGERATLSCRASQSISNNYLFWYQQKPGQAPRLLIYGASTRATGIPARFSGSGSGTDFTLTISSLQPEDFAVYYCQQDYNFPLTFGGGTKVEIK")
8.30

Batch request: pEC50 per item, same order as input.
1. anti-BTLA antibody 16-H16A (antibody, V domains shown) VH: QLQLQESGPGLVKPSETLSLTCTVSGDSISSSGYYWGWIRQPPGKGLEWIGSIYYSGSTHYNPSLKSRVTISVDSSKSQFSLKLSSVTAADTAVYCCARHKVDSSGWPLDYWGQGTLVTVSS VL: EIVMTQSPATLSLSPGERATLSCRASQSISSSCLSWYQQKPGQAPRLLIYDTSTRATGIPARFSGSGSGTDFTLTISSLQPEDFAVYYCQQDYNLPLTFGGGTKVEIK
2. anti-BTLA antibody 12-I8A (antibody, V domains shown, also called 12-IBA) VH: QVQLVESGGGVVQPGRSLRLSCAASGFTFSNYGMHWVRQAPGKGLEWVAVIWYNGSNKYYADSVKGRFTISRDNSKNTLYLQMNSLRAEDTAVYYCARDDVVRYFDWPLDYWGQGTLVTVSS VL: AIQMTQSPSSLSASVGDRVTITCRASQGIRNDLGWYQQKPGKAPKVLIYAASSLQSGVPSRFSGSGSGTDFTLTISSLQPEDFATYYCLQDYNYPWTFGQGTKVEIK
3. anti-BTLA antibody 13-F7A (antibody, V domains shown) VH: EVQLLESGGGLVQPGGSLRLSCAASGFTSSSYGMSWVRQAPGKGLEWVSGISGSGGGTYYADSVKGRFTISRDNSKNTLYLQMNSLRAEDTAVYYCAKGDYYGSGSYPLFDYWGQGTLVTVSS VL: AIQLTQSPSSLSASVGDRVTITCRASQDISSALAWYQQKPGKAPKLLISDASSLESGVPSRFSGSGSGTDFTLTISSLQPEDFATFYCQQFNNYPPTFGPGTKVDIK

RESULT:
1. 8.33
2. 8.54
3. 8.82
